Test system: trachea (contraction induced by potassium chloride)
Assay: antagonism of the effect of potassium chloride (contractions of isolated guinea pig trachea)
Assay type: cell-based
Details: Cavia porcellus, 5 min, potassium chloride 1850 μg/ml, 5 min contact, 37° C.

molecule	unit spec	IC50
C=CCn1c(=O)c(N(C)C)nc2ccccc21	µg/mL	19.3
CCCCn1c(=O)c(NC)nc2ccccc21	µg/mL	11.1
CCCCn1c(=O)c(N)nc2ccccc21	µg/mL	9.6
CCCn1c(=O)c(N)nc2ccccc21.Cl	µg/mL	19.3
